Target: T1, EsCas13d, nuclease-dead (Eubacterium siraeum, UniProt B0MS50, R295A;H300A;R849A;H854A)
T1 sequence: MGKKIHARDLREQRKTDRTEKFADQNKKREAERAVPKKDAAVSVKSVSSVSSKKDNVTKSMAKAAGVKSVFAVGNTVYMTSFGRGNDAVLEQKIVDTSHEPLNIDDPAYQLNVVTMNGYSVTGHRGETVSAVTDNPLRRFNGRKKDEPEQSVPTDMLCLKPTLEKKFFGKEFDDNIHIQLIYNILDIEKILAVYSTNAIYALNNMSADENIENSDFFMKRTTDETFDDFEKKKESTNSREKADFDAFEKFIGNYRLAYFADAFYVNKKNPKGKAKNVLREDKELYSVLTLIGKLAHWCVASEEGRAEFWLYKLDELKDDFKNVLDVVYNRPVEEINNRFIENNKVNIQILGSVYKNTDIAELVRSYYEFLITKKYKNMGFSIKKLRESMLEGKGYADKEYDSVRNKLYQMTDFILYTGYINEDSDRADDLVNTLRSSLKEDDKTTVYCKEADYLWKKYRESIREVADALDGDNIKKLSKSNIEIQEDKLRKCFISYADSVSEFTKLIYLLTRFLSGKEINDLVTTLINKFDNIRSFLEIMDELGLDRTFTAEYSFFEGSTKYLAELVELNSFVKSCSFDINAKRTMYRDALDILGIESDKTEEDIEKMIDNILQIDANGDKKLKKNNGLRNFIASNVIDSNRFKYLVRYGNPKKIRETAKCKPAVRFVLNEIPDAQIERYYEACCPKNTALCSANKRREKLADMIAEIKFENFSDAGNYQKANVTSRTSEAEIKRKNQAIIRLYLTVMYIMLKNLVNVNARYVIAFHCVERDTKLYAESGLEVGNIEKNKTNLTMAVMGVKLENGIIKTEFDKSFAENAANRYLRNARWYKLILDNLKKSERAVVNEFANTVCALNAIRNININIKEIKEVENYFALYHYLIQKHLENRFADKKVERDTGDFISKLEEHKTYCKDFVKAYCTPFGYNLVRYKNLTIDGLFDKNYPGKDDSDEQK
Assay: crRNA (strand 1, pre-loaded); Mg2+; 40 mM Tris-HCl pH 7.5, 150 mM NaCl, 6 mM MgCl2, 1 mM DTT, 0.1% Tween-20, 0.2 mg/ml BSA; 25 C; 10 min per concentration, then washed
Conditions: tags: His6-TwinStrep-SUMO cleaved; N-terminal SNAP kept (SNAP-Surface 488); label: 3' end held by stalled T7 RNA polymerase
property.name: pKd
To interpret pKd, take it as minus log10 of a concentration measured in moles per litre.

{"columns": ["binder", "pKd"],
 "data": [
  ["target 1 insU 3' of 21,insU 3' of 7 (mixed) RNA 1: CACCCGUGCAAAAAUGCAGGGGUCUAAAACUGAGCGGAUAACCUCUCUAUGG RNA 2: GGGAAUGGAUCCACAUCUACGAAUUCGUACCUAUAGAGAGGUUAUCUCGCUCACCGAGAUCGGAAGAGCACACGU", 7.27]
]}

Query :: Item target 2 MT 5'PFS GUG 3'PFS UUC (mixed) RNA 1: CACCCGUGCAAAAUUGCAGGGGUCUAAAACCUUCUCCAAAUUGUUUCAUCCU RNA 2: GGGAAUGGAUCCACAUCUACGAAUUCGUGAGGAUGAAACAAUUUGGAGAAGUUCAGAUCGGAAGAGCACACGU has what recorded pKd?
Result :: 7.57
